biological target: Prostaglandin G/H synthase 1 (Homo sapiens, UniProt P23219)
Sequence (P23219 whole entry): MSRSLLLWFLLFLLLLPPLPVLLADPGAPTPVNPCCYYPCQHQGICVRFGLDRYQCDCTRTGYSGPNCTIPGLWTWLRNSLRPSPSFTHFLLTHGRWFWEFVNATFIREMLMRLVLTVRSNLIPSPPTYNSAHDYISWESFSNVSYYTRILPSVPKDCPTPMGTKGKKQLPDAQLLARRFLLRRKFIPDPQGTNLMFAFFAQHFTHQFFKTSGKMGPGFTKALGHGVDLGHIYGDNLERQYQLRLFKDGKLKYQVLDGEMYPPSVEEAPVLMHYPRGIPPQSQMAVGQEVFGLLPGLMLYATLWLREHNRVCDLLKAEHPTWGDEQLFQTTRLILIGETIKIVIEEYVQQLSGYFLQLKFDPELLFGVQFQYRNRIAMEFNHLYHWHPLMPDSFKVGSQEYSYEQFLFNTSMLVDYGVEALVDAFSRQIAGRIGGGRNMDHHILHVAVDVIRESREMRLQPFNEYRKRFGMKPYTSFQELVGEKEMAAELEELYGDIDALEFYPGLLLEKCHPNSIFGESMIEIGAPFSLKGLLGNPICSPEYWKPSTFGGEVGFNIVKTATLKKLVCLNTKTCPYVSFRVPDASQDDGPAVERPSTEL
Property Name: pIC50
One number for each entry, as −log10 of the molar value.

Prompt: Requested read-out: pIC50. Entry: O=c1oc2ccc(Cl)cc2n1Cc1cn(-c2ccc(Cl)cc2)nn1
Completion: 3.95

----------
test system: Rattus norvegicus; test: Ulcerogenicity in albino Wistar rat assessed as gastric surface epithelial damage at 0.15 mmol/kg, po by hematoxylin and eosin staining-based assay; assay type: toxicity, organism-based, Stomach; conditions: in vivo
Property Name: Activity

Below are worked cases with known answers.
Compound | Test Target | Activity
O=c1oc2ccc(Cl)cc2n1Cc1cn(-c2ccc(Cl)cc2)nn1 | Rattus norvegicus | Non-toxic
O=c1oc2ccc(Cl)cc2n1Cc1cn(-c2ccccc2F)nn1 | Rattus norvegicus | Non-toxic
Cc1ccc2oc(=O)n(Cc3cn(-c4ccc(Br)cc4)nn3)c2c1 | Rattus norvegicus | Non-toxic
COc1ccc2c(c1)c(CC(=O)O)c(C)n2C(=O)c1ccc(Cl)cc1 [INDOMETHACIN] | Rattus norvegicus | Toxic
Cc1ccc2c(c1)oc(=O)n2Cc1cn(-c2ccc(Cl)cc2)nn1 | Rattus norvegicus | Non-toxic
Cc1ccc2c(c1)oc(=O)n2Cc1cn(-c2ccccc2Cl)nn1 | Rattus norvegicus | Non-toxic

Kindly consider the entry below.
Prompt: Test system Rattus norvegicus; read-out Activity; what value for Cc1ccc2c(c1)oc(=O)n2Cc1cn(-c2ccc(F)cc2)nn1 ?
Completion: Non-toxic
